// reported EC50 per item
# experimental_system: Peroxisome proliferator-activated receptor gamma/Nuclear receptor coactivator 2 (Homo sapiens)
# Sequence (P37231 whole entry): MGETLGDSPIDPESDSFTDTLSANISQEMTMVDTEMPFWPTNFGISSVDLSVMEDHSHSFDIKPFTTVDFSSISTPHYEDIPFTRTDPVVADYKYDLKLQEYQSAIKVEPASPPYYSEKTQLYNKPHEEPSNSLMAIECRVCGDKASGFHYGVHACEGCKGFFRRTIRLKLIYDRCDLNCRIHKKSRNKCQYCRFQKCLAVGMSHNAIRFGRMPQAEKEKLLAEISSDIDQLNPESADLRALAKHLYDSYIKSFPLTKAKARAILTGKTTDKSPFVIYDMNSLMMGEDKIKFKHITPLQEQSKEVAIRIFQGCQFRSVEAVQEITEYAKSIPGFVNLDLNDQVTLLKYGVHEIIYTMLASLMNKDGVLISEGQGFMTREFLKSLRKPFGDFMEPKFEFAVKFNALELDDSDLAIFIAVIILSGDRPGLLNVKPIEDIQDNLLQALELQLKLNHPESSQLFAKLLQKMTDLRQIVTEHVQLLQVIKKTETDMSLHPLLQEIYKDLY
# Sequence (Q15596 whole entry, further chain): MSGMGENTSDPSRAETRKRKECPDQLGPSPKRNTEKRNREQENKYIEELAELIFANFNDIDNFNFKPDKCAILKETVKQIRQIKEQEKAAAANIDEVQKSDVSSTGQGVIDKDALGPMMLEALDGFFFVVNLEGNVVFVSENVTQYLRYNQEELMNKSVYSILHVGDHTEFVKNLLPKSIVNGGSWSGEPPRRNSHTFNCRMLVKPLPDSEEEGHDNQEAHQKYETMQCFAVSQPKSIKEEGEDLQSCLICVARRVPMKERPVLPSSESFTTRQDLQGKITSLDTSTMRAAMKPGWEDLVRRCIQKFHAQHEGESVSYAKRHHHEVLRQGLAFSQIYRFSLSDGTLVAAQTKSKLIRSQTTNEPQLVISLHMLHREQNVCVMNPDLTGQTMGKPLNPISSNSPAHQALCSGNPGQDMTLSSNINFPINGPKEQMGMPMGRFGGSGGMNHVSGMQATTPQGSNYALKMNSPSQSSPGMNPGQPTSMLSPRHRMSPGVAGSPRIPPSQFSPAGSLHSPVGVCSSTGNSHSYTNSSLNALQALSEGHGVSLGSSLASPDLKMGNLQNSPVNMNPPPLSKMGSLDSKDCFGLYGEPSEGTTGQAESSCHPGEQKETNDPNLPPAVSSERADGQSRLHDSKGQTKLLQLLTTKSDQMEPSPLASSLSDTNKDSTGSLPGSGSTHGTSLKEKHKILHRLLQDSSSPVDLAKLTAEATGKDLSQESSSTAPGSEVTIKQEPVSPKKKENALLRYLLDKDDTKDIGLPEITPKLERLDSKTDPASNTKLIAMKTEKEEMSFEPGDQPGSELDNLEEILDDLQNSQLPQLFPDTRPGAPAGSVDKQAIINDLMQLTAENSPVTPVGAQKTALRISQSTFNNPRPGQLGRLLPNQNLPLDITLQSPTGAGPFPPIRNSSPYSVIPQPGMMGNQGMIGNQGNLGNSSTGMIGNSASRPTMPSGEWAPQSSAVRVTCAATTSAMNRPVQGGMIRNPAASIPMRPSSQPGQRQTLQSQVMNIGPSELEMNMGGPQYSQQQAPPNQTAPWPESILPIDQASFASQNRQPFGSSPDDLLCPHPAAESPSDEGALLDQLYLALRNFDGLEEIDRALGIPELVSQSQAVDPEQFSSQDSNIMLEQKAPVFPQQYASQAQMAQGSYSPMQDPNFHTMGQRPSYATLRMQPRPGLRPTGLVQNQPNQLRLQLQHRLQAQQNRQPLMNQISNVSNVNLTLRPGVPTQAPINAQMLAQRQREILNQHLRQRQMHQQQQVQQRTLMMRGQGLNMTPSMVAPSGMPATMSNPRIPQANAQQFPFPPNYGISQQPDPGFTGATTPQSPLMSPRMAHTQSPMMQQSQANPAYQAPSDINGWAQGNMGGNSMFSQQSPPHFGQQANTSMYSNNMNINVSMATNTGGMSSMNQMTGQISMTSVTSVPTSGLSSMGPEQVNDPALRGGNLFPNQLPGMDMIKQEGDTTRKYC
# assay_notes: TR-FRET dose response biochemical High Throughput Screening assay for agonists of the steroid receptor coactivator 2 (SRC-2) recruitment by the peroxisome proliferator-activated receptor gamma (PPAR gamma): non-selective agonists. [Related pubchem assays: 1297, 1032 ]
# Type: functional
Calls of active or inactive are those of the source.

Previously resolved entries follow.
COc1cccc2cc(C(=O)C3=C(O)C(=O)N(Cc4ccco4)C3c3cccnc3)oc12 (stereo not given) ... > 79.4 µM (not active)
CCn1c(=O)cc(SCC(=O)NCCN2CCN(Cc3ccccc3)CC2)c2ccccc21 ... > 79.4 µM (not active)
CSc1cnn(Cc2ccccc2)c(=O)c1SCc1ccccc1 ... 7.94 µM (active)
CCOc1ccc(NC(=O)CSc2ncnc3c2sc2ccccc23)cc1 ... 32 µM (not active)

Ask: Field request: EC50 | item: `COc1c(C)cccc1C(=O)NC(=S)Nc1cccc2nsnc12`
Result: 4.14 µM (active)

---

# assay_notes: loss of viability in HepG2 cells – cell-based, CellTiter-Glo, cherry-picked, cytotoxicity control for Shn3 inhibitor project, dose response (AID 624134)
# Format: functional
Calls of active or inactive are those of the source.
readout: AC50

Sample answers from the record:
COc1ccc(/C=C/C(=O)NC(=S)NNC(=O)c2cnccn2)cc1 ... 42.4 µM (active)
COc1cc(C2c3cc4c(cc3C(OC3OC5COC(c6cccs6)OC5C(O)C3O)C3COC(=O)C23)OCO4)cc(OC)c1O (centres undefined) ... 14.3 µM (active)
CCCCC1(Cc2ccc([N+](=O)[O-])cc2)C(=O)N(c2ccccc2)N(c2ccccc2)C1=O ... 66.8 µM (active)

Attention now turns to another entry.
Ask: Return reported AC50; argument: `COC(=O)/C(=C1/Oc2cc(C)oc(=O)c2S1)C(F)(F)F`
Result: 43 µM (active)

---

Measured IC50 by item
# experimental_system: Neuropeptide Y receptor type 2 (Homo sapiens, UniProt P49146);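 also: HEK293 cells expressing the receptor and a CNG channel; stimulus was NPY near EC95 followed by isoproterenol to raise cAMP; antagonist potency measured as restoring cAMP signal that NPY suppresses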
# Sequence (P49146 whole entry): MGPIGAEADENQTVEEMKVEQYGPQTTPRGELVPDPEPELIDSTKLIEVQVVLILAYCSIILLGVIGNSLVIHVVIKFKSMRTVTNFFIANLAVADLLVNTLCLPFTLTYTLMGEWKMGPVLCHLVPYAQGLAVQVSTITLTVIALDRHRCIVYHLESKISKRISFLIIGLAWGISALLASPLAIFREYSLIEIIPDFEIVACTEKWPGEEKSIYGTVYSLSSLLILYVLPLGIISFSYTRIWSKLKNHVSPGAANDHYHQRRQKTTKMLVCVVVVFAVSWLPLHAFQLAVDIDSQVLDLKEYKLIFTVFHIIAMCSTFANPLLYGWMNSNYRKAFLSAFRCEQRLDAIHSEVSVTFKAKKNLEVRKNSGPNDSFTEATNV
# Format: functional, cell-based
Activity calls are given as the source filed them.

CCOc1ccc2nc(NC(=O)CS(=O)(=O)c3ccc(C)cc3)sc2c1 ... > 35 µM (not active)

Ask: Consider the compound shown here: `Cc1ccc(OCCCCN(C)Cc2ccccc2)c(Br)c1` What is its recorded IC50?
Result: 12 µM (not active)

Ask: Recorded IC50 for `O=C(CSCc1c(Cl)cccc1Cl)Nc1ccccc1-c1ccccc1` , please?
Result: 6.07 µM (active)

Ask: Consider the compound shown here: `Clc1ccc(C2=Nn3c(nnc3-c3[nH]nc4c3CCC4)SC2)cc1Cl` What is its recorded IC50?
Result: 8.69 µM (active)

---

# assay_notes: Luminescence Cell-Based Dose Retest to Confirm Inhibitors of Cancer Stem Cells. [Related pubchem assays (depositor defined):AID2717, AID2721]
# Format: functional
# condition_info: Homo sapiens
Calls of active or inactive are those of the source.
Field 'call' accepts class 1 for active, class 0 for inactive

COc1ccc(/C=N/N(Cc2ccccc2)c2ccccc2)cc1O ... class 1

Ask: For `CCO/C(O)=C(/C#N)c1nc2ccccc2nc1N(CC(C)C)CC(C)C` , what call appears in the results of this test?
Result: class 1

Ask: For CCc1ccc(-c2cc3c(=O)n(CC(=O)NCCN4CCCCC4C)nc(C)n3n2)cc1 (stereo unspecified) , which call appears in the assay record?
Result: class 1

Ask: Look up the recorded call for `O=C1N/C(=C/c2ccc(N3CCOCC3)o2)C(=O)N1c1ccccc1` in this test.
Result: class 0

Ask: Field: outcome | Entry: Cc1ccc(C2C(/C=C3/SC(=S)NC3=O)=C(c3cccs3)Oc3ccccc32)cc1 (stereo unspecified)
Result: class 1

Ask: Returns: the outcome recorded for `Sc1nnc(-c2cc(-c3ccccc3)[nH]n2)n1/N=C/C(Br)=C/c1ccccc1` in this assay.
Result: class 1

---

# experimental_system: Glycogen synthase kinase-3 beta (Homo sapiens);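 also: value comes from a broad kinome profiling panel, with GSK3B as the panel member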
# Sequence (P49841 whole entry): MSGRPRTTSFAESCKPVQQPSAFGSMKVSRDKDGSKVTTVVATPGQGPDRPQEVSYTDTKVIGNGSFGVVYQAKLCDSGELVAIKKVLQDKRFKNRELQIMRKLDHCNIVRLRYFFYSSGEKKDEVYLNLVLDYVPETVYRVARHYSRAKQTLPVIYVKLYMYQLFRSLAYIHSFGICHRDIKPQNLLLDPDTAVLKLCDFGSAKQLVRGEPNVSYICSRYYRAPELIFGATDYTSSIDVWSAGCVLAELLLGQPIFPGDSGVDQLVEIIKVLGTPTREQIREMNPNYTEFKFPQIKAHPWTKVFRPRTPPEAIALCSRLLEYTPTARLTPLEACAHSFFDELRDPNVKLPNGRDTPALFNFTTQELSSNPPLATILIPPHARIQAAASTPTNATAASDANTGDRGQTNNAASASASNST
# Format: functional
The source made the active and inactive calls.
Please answer using one outcome listed in active, inactive

COCCNc1cc(-c2c[nH]c3ncccc23)cc(Cl)n1 ... active

Ask: Name the outcome recorded for `NNc1cc(N2CCOCC2)nc(OCCc2ccccn2)n1` in the assay.
Result: inactive

Ask: // return assay outcome for `COc1nc(N)c(C#N)c(-c2ccc(Cl)cc2Cl)c1C#N`
Result: active

Ask: In this assay, the call recorded for `Nc1n[nH]c2ccc(-c3cc(Cc4ccccc4)no3)cc12` was what?
Result: active

Ask: Any idea what this test logged for `Cc1ccc(Nc2nccc(Nc3ccccc3C(=O)O)n2)cc1F` ?
Result: active

---

# experimental_system: Heat shock factor protein 1 (Mus musculus)
# Sequence (P38532 whole entry): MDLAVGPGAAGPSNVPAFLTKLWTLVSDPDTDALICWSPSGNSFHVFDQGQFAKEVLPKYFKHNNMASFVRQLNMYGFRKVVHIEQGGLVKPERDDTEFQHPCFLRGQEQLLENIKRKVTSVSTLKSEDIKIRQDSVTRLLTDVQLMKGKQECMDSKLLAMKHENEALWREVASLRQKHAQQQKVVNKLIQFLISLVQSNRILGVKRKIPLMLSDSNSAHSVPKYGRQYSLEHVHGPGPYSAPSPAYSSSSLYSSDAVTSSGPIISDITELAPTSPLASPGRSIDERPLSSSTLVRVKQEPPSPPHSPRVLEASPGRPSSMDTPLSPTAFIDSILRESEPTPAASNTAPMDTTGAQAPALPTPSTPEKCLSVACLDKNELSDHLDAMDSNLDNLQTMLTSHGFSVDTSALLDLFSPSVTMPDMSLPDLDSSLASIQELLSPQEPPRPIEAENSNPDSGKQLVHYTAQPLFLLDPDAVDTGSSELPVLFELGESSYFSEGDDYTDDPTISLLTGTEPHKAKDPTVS
# assay_notes: enhancement of HSF1-driven luciferase signal – cell-based, NIH3T3, luminescence, dose retest, confirmation (AID 435004);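 also: stress induced by proteasome inhibitor MG132 added 30 min after compound; luciferase reporter driven by HSF1 response element in NIH3T3 cells; actives raise luminescence as potentiators of the MG132 stress response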
# Format: functional
Calls of active or inactive are those of the source.
Response enum: 1 (active), 0 (inactive)

These solved cases illustrate the format of a correct answer.
CCOC(=O)/C=C/C(=O)N1CCc2ccccc21 ... 1
CCc1ccc(NC(=O)CSc2nc3nnc(C)c-3c(N)n2-c2cccc(OC)c2)cc1 ... 1
N#C/C(=C\c1cn(Cc2ccccc2)c2ccccc12)C(=O)NCc1ccco1 ... 1
CSc1ccc(Cl)c(C(=O)OCC(=O)N(C)CCC#N)c1 ... 0
Fc1ccc(-c2nc(-c3cnccn3)no2)c(Cl)c1 ... 0

Ask: What did this assay record as the result for `CCCC(=O)O/N=C(\c1ccccc1)c1ccncc1` ?
Result: 0

Ask: For this molecule, state the assay outcome: COc1ccc(C(=O)N(C)CC(O)c2ccccc2)cc1OC1CCN(C(C)=O)CC1 (stereo unspecified)
Result: 0

Ask: Given `O=C(c1ccccc1)c1ccc2nc(-c3ccco3)c(-c3ccco3)nc2c1` , state the outcome it received in this test.
Result: 1

Ask: Tell me the recorded outcome of this test for `C/C(=N\NC(=O)c1cccc(N/N=C(\C)c2cc(O)ccc2O)c1)c1cc(O)ccc1O` .
Result: 0

Ask: Dear colleague, could you share the recorded outcome for `Cc1nc(Sc2ccc(Br)cc2)c(C#N)c(C)c1[N+](=O)[O-]` when you have a moment?
Result: 1

---

Recorded IC50, one value per entry.
# experimental_system: High affinity choline transporter 1 (Homo sapiens, UniProt Q9GZV3)
# Sequence (Q9GZV3 whole entry): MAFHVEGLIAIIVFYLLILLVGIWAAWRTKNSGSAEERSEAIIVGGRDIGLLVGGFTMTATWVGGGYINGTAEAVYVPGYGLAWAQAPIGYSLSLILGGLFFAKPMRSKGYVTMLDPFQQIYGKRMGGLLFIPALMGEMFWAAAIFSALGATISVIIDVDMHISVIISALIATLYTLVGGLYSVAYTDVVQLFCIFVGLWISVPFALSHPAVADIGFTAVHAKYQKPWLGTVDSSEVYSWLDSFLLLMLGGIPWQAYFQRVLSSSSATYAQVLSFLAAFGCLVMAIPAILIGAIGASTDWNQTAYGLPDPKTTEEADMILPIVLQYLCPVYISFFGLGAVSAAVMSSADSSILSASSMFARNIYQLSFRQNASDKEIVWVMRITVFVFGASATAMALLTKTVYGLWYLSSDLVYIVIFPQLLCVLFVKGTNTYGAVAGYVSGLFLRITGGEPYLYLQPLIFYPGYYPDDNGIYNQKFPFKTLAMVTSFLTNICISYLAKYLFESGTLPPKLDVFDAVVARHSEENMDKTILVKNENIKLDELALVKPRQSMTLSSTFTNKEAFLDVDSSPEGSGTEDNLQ
# assay_notes: human choline transporter blockers, potency – cell-based, 5-point CRC, membrane potential dye, dose response (AID 504840)
# Assay type: functional
Activity calls are given as the source filed them.

Cc1ccc(C(=O)Nc2ncc([N+](=O)[O-])s2)cc1 ... 10.5 µM (active)
CCCc1cc(C(=O)NN=C(S)NC(C)c2ccccc2)cs1 (stereo unspecified) ... 12.6 µM (active)
COc1ccc(C(=O)N2CCCCCC2)cc1OC1CCN(C(C)C)CC1 ... 13.9 µM (active)
O=C(On1c(-c2ccccc2)nc2ccccc2c1=O)c1ccco1 ... 4.57 µM (active)
COc1cc(/C=N/c2cccc(C)c2)c(O)c([N+](=O)[O-])c1 ... 13.2 µM (active)

# next compound below
Ask: Given `CCc1cc2c(N3CCN(c4nnc(CC)s4)CC3)ncnc2s1` , state its recorded IC50.
Result: 3.63 µM (active)

---

# experimental_system: Polyadenylate-binding protein 1 (Homo sapiens, UniProt P11940)
# Sequence (P11940 whole entry, the tested form may be a part): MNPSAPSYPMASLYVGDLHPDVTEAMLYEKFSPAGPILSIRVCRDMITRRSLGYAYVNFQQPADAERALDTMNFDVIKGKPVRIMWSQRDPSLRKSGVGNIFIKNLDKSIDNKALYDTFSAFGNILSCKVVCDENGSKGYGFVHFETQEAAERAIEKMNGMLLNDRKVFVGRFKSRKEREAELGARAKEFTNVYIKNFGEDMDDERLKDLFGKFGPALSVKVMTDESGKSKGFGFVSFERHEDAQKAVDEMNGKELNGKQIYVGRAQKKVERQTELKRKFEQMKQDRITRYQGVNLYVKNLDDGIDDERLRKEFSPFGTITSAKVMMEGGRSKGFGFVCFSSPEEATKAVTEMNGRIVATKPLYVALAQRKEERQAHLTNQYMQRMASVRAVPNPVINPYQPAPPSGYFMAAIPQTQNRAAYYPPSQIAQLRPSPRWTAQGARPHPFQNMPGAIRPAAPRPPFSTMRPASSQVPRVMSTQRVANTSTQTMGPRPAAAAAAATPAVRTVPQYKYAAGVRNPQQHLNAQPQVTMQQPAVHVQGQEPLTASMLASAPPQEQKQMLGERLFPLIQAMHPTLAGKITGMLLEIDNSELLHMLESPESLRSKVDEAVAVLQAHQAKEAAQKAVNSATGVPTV
# assay_notes: MLLE domain peptide-binding blockers, IC50 – biochemical, fluorescence polarization, FITC-PAM2 peptide, dose response (AID 602259)
# Type: functional
# condition_info: read-out: IC50_Mean
The source made the active and inactive calls.
IC50 values for the compounds below.

Here is how some compounds turned out for IC50.
O=C(/C=C/c1ccc(-c2ccccc2[N+](=O)[O-])o1)c1ccco1 ... > 66 µM (inactive)
Sc1ncnc2c1ncn2C1CCCO1 (configuration not stated) ... > 66 µM (inactive)
COC(=O)CSC1=C(C#N)C(=O)NC(c2ccccc2)S1 (configuration not stated) ... > 66 µM (inactive)
Cc1ccc(N(CC(N)=O)C2SC(=O)N(Cc3ccccc3)C2=O)cc1 (configuration not stated) ... > 66 µM (inactive)
CN(C)c1cc2c3ccccc3n(C)c2cc1N ... 22.8 µM (inactive)
Cc1cc2cc(CNC(=O)c3ccc4c(c3)OCO4)ccc2n1C ... > 66 µM (inactive)
Cc1ccc([N+](=O)[O-])cc1NC(=S)NC(=O)c1cccnc1 ... > 66 µM (inactive)
N#Cc1cc2c(=O)n3ccccc3nc2n(Cc2ccco2)/c1=N/C(=O)c1ccco1 ... > 66 µM (inactive)
CC(C)C(NC(=O)c1cccs1)C(=O)NC1=NCCS1 (configuration not stated) ... > 66 µM (inactive)
COc1cc(NS(=O)(=O)c2ccc(NC(=S)NC(=O)c3sc4cc(F)ccc4c3Cl)cc2)nc(OC)n1 ... > 66 µM (inactive)

Ask: Need IC50 of `N#Cc1ccc2c(=O)n(-c3ccccc3)sc2c1` , thanks.
Result: > 66 µM (inactive)

Ask: Need IC50, item `CCOc1ccccc1NC(=O)Nc1ccc(OC)nc1`
Result: 35.9 µM (inactive)
